Biological target: T1, P3A-bH
T1 chain: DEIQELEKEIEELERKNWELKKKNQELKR
Test: two-hybrid library CCNG1;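 also: natural log of median RNA to DNA barcode read ratio; higher means stronger binding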
ASSAY_READOUT: interaction score

Some binders with recorded interaction score:
BINDER	MEASURED_VALUE
DKNQELKKKIEELKRKIWELKKENQELER [P12A-bH]	1.64
DKIQELKKKNEELKRKNWELKKKIQELKR [P2A-bH]	-1.95
DKNQELKKENEELERKIWELKKKIQELKR [P10A-bH]	0.247
DENQELEKEIEELEREIWELEKKNQELKR [P11A-bH]	0.615

Hi, could you look up interaction score for each item in my list?
1. DEIQELEKENEELERENWELEKEIQELER [P1A-bH]
2. DEIQELEKEIEELERKNWELKKKNQELKR [P3A-bH]

Marked response:
-1.59
-0.68
